TEST PROTOCOL: Ratio of drug concentration in heart to plasma of Sprague-Dawley rat at 10 mg/kg, po measured for 24 hrs by LC-MS/MS analysis
Assay type: ADME, organism-based
MEASUREMENT SETUP: heart and plasma
VALUE TYPE: Kp at 24 h
Answer with a bare number; do not write a unit.

## Task Consider the molecule `COCCCOc1cc2c(nc1OC)-c1cc(=O)c(C(=O)O)cn1[C@H](C(C)C)C2` . State its measured Kp at 24 h.
## Result 1.9

###

Reported fraction unbound at 6 h, 2 µM values for the following molecules.
TEST PROTOCOL: Plasma protein binding in monkey assessed as unbound fraction at 2 uM incubated for 6 hrs by equilibrium dialysis
Format: ADME, cell-free, Macaca mulatta
MEASUREMENT SETUP: rhesus monkey
Answer with a bare number; do not write a unit.

>>> df
                                smiles_text  numeric_readout
0  COc1cc(OC(F)F)c2nc3c(n2c1)C[C@@H](C(C)(C)C)c1cc(C(=O)O)c(=O)[nH]c1-3             0.02
1  CC(C)(C)[C@@H]1Cc2c(nc3c(C(F)(F)F)cc(C4CC4)cn23)-c2[nH]c(=O)c(C(=O)O)cc21             0.02

// below: fraction unbound at 6 h, 2 µM requested for another molecule
## Task Consider the molecule `COCCCOc1cc2c(nc1OC)-c1cc(=O)c(C(=O)O)cn1[C@H](C(C)C)C2` . State its measured fraction unbound at 6 h, 2 µM.
## Result 0.58

###

Reported microsomal CLint at 0.3 µM values for the following compounds.
TEST PROTOCOL: Metabolic stability in human liver microsomes assessed as clearance at 0.3 uM preincubated for 5 mins followed by NADPH addition measured upto 60 mins by LC-MS/MS analysis
Format: ADME, Microsome
MEASUREMENT SETUP: time < 65 min, read-out: CLH
# unit: µL/min/mg | format: bare number

As a guide, the following entries are already answered.
>>> print(df.to_string())
                                smiles_text  unit_annotation  numeric_readout
0  COCCCOc1cc2c(nc1OC)-c1cc(=O)c(C(=O)O)cn1[C@H](C(C)C)C2        µL/min/mg                2
1  CC(C)(C)[C@@H]1Cc2c(nc3c(C(F)F)cccn23)-c2[nH]c(=O)c(C(=O)O)cc21        µL/min/mg                2
2  CC(C)(C)[C@@H]1Cc2c(nc3c(OC(F)F)cccn23)-c2[nH]c(=O)c(C(=O)O)cc21        µL/min/mg                2
3  CC(C)(C)[C@@H]1Cc2c(nc3c(C(F)(F)F)cc(Cl)cn23)-c2[nH]c(=O)c(C(=O)O)cc21        µL/min/mg                3

// below: microsomal CLint at 0.3 µM requested for another compound
## Task Consider the compound `COCCCOc1cc2c(nc1OC)-c1[nH]c(=O)c(C(=O)O)c(O)c1[C@H](C(C)(C)C)C2` . State its measured microsomal CLint at 0.3 µM.
## Result 57

###

TEST PROTOCOL: Total Cmax in Beagle dog at 5 mg/kg, po qd measured after 91 days
Type: ADME, organism-based, Canis lupus familiaris
MEASUREMENT SETUP: in vivo, time 91 day
VALUE TYPE: Cmax (ng/mL)
# unit: ng/mL | format: bare number

## Task Consider the molecule `COCCCOc1cc2c(nc1OC)-c1cc(=O)c(C(=O)O)cn1[C@H](C(C)C)C2` . State its measured Cmax.
## Result 4680
